Assay: Theuraptic Index: ratio of ID 50 / ED 90 of compound against HSV 1
Assay type: functional
experimentalReadout: TI
I'd appreciate a reply containing only the number, no unit.

- compound: "C=CCc1cn([C@@H]2O[C@H](CO)[C@@H](O)[C@@H]2F)c(=O)[nH]c1=O"
  TI: 73
- compound: "CCc1cn([C@@H]2O[C@H](CO)[C@@H](O)[C@@H]2F)c(=O)[nH]c1=O"
  TI: 6540
- compound: "CCCc1cn([C@@H]2O[C@H](CO)[C@@H](O)[C@@H]2F)c(=O)[nH]c1=O"
  TI: 551

In the following, a different compound is considered.
# return recorded TI for entry Cc1cn([C@@H]2O[C@H](CO)[C@@H](O)[C@@H]2F)c(=O)[nH]c1=O [5-METHYL-2'-FLUOROARAURACIL] 59
